# Tested on: MDA-MB-231 breast
# assay: NCI-60 one-dose screen, 48 h
# condition.set: 10 µM unless noted
This is part of a sample that, as a whole, favours compounds with a hit. Of some 83,000 tested, about 20% had one in any assay. Calls of active or inactive are those of the source. Rule for the calls: active = growth percent below 10; inactive = the rest.
One label from this list, please: y = active, n = inactive

Q: Hi, do you know how CCOc1ccccc1[C@H]1C(C(=O)c2ccc(Cl)cc2)C2(N[C@@H]1c1ccccc1)C(=O)Nc1ccc(Cl)cc12 (some centres undefined) came out in this test?
A: n

Q: Let us now turn to `O=C(N/N=C/c1ccoc1)c1[nH]c2ccc(Br)cc2c1-c1ccccc1`
A: y

Q: Another compound to look at: `COc1cc(-c2ccc3ncnc(N4CCc5ccc(Cl)cc54)c3c2)cnc1Cl`
A: n

Q: Can you handle COc1cc(C2CC(c3ccc(S(=O)(=O)NCCNc4nc(N(C)C)nc(N5CCOCC5)n4)cc3)=Nc3c(N)nc(N)nc3N2)cc(OC)c1OC (centres undefined) next?
A: n
